Biological target: interaction between PD-1 and PD-L1 (Homo sapiens (Human))
Assay: PD1-PDL1 HTRF binding activity test (Cisbio PD-1/PD-L1 binding assay kit)
Conditions: read-out: PD1-PDL1 HTRF Binding Activity IC50
measurementName: IC50

1. COC[C@H](NCc1cnc(C(=O)Nc2cccc(-c3cccc(NC(=O)c4cc(OC)c(CN[C@@H](COC)C(=O)OC)cn4)c3C)c2C)cc1OC)C(=O)OC :: 10.9 nM
2. Cc1c(NC(=O)c2cc(C3CC3)c(CN[C@@H](CC(=O)O)C(=O)O)cn2)cccc1-c1cccc(NC(=O)c2cc(C3CC3)c(CN[C@@H](CC(=O)O)C(=O)O)cn2)c1C :: 0.94 nM
3. CCOC(=O)[C@H](C)NCc1cnc(C(=O)Nc2cccc(-c3cccc(NC(=O)c4cc(C5CC5)c(CN[C@@H](C)C(=O)OCC)cn4)c3C)c2C)cc1C1CC1 :: 22 nM

Q: If you can, please state the reported IC50 value of `Cc1c(NC(=O)c2cc(C3CC3)c(CNC(CO)CO)cn2)cccc1-c1cccc(NC(=O)c2cc(C3CC3)c(CNC(CO)CO)cn2)c1C` .
Result: 0.87 nM

Q: Now the compound `COC(=O)[C@@H]1CCN(Cc2cnc(C(=O)Nc3cccc(-c4cccc(NC(=O)c5cc(C6CC6)c(CN6CC[C@@H](C(=O)OC)C6)cn5)c4C)c3C)cc2C2CC2)C1`
Result: 21.8 nM

----------
Target: interaction between PD-1 and PD-L1 expressed on cell surfaces (Homo sapiens (Human), UniProt Q9NZQ7)
Sequence (Q9NZQ7 19-290): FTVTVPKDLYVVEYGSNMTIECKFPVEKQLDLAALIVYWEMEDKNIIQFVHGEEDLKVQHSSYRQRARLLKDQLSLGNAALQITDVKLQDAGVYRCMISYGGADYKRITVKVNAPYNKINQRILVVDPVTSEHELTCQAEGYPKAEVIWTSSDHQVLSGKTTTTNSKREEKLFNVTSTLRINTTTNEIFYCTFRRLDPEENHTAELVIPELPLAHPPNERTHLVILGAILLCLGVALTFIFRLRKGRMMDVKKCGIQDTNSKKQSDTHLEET
Assay: Jurkat reporter gene cellular assay (Jurkat/NF-κB-luc/PD1 cells cocultured with Raji-PD-L1 cells, OKT-3 stimulation)
Format: cell-based
Conditions: NF-κB-luc reporter activation fold, 6 hrs; read-out: Cell Activity EC50
Decision: EC50 beneath 0.09 µM gives t; EC50 meeting or exceeding 0.09 µM gives f.

1. COc1cc(C(=O)Nc2cccc(-c3cccc(NC(=O)c4cc(OC)c(CN5CC(C)(O)C5)cn4)c3C)c2C)ncc1CN1CC(C)(O)C1 :: t
2. Cc1c(NC(=O)c2cc(C3CC3)c(CN[C@@H](C)CO)cn2)cccc1-c1cccc(NC(=O)c2cc(C3CC3)c(CN[C@@H](C)CO)cn2)c1C :: t
3. COc1cc(C(=O)Nc2cccc(-c3cccc(NC(=O)c4cc(OC)c(CN[C@@H](CCO)C(=O)O)cn4)c3C)c2C)ncc1CN[C@@H](CCO)C(=O)O :: f
4. Cc1c(NC(=O)c2cc(C3CC3)c(CNC[C@@H](O)CC(=O)O)cn2)cccc1-c1cccc(NC(=O)c2cc(C3CC3)c(CNC[C@@H](O)CC(=O)O)cn2)c1C :: t
5. Cc1c(NC(=O)c2cc(C3CC3)c(CNCC(F)F)cn2)cccc1-c1cccc(NC(=O)c2cc(C3CC3)c(CNCC(F)F)cn2)c1C :: f
6. CNCc1cnc(C(=O)Nc2cccc(-c3cccc(NC(=O)c4cc(OC)c(CNC)cn4)c3C)c2C)cc1OC :: t
7. CCOC(=O)CN(C)Cc1cnc(C(=O)Nc2cccc(-c3cccc(NC(=O)c4cc(C5CC5)c(CN(C)CC(=O)OCC)cn4)c3C)c2C)cc1C1CC1 :: f
8. COc1cc(C(=O)Nc2cccc(-c3cccc(NC(=O)c4cc(OC)c(CN5CCC(O)CC5)cn4)c3C)c2C)ncc1CN1CCC(O)CC1 :: f

Now take the following molecule into account.
Q: I wonder whether `Cc1cc(C(=O)Nc2cccc(-c3cccc(NC(=O)c4cc(C)c(CN[C@H](CO)C(=O)O)cn4)c3C)c2C)ncc1CN[C@H](CO)C(=O)O` has EC50 below 0.09 µM. Can you tell?
Result: t

----------
Listed compounds paired with reported IC50
Target: interaction between PD-1 and PD-L1 (Homo sapiens (Human), UniProt Q9NZQ7)
Sequence (Q9NZQ7 19-238): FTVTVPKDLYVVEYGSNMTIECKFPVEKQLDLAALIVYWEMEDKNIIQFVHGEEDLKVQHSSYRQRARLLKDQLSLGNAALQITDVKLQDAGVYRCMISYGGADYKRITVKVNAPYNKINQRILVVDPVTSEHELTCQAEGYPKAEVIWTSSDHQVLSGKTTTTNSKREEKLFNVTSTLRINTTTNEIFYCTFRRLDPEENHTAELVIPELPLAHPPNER
Test: PD1-PDL1 HTRF binding activity test (Cisbio PD-1/PD-L1 binding assay kit)
Conditions: read-out: PD1-PDL1 HTRF Binding Activity IC50
Numeric only. Scale: nM

1) Cc1c(NC(=O)c2cc(C3CC3)c(CN3CC[C@@H](C(=O)O)C3)cn2)cccc1-c1cccc(NC(=O)c2cc(C3CC3)c(CN3CC[C@@H](C(=O)O)C3)cn2)c1C :: 0.2

Q: If you can, please state the reported IC50 value of `COc1cc(C(=O)Nc2cccc(-c3cccc(NC(=O)c4cc(OC)c(CNCCS(C)(=O)=O)cn4)c3C)c2C)ncc1CNCCS(C)(=O)=O` .
Result: 0.082

Q: Now the compound `Cc1cc(C(=O)Nc2cccc(-c3cccc(NC(=O)c4cc(C)c(CNCC(=O)O)cn4)c3C)c2C)ncc1CNCC(=O)O`
Result: 0.37

----------
Biological target: interaction between PD-1 and PD-L1 (Homo sapiens (Human))
Assay: PD1-PDL1 HTRF binding activity test (Cisbio PD-1/PD-L1 binding assay kit)
Settings: read-out: PD1-PDL1 HTRF Binding Activity IC50
Listed compounds paired with reported pIC50
pIC50 here: minus log base 10 of the concentration, concentration in moles per litre.

Below, 10 compounds whose answers are already recorded.
1) COc1cc(C(=O)Nc2cccc(-c3cccc(NC(=O)c4cc(OC)c(CNCC(=O)O)cn4)c3C)c2C)ncc1CNCC(=O)O :: 9.29
2) COc1cc(C(=O)Nc2cccc(-c3cccc(NC(=O)c4cc(OC)c(CN5CC(C)(OC)C5)cn4)c3C)c2C)ncc1CN1CC(C)(OC)C1 :: 9.40
3) Cc1cc(C(=O)Nc2cccc(-c3cccc(NC(=O)c4cc(C)c(CNC(CO)CO)cn4)c3C)c2C)ncc1CNC(CO)CO :: 9.39
4) COc1cc(C(=O)Nc2cccc(-c3cccc(NC(=O)c4cc(OC)c(CN5CC[C@H](O)C5)cn4)c3C)c2C)ncc1CN1CC[C@H](O)C1 :: 9.51
5) Cc1c(NC(=O)c2cc(C3CC3)c(CN[C@H](C(=O)O)[C@@H](C)O)cn2)cccc1-c1cccc(NC(=O)c2cc(C3CC3)c(CN[C@H](C(=O)O)[C@@H](C)O)cn2)c1C :: 8.99
6) COc1cc(C(=O)Nc2cccc(-c3cccc(NC(=O)c4cc(OC)c(CN5CC6(COC6)C5)cn4)c3C)c2C)ncc1CN1CC2(COC2)C1 :: 9.66
7) COc1cc(C(=O)Nc2cccc(-c3cccc(NC(=O)c4cc(OC)c(CN[C@@H](CCO)C(=O)O)cn4)c3C)c2C)ncc1CN[C@@H](CCO)C(=O)O :: 9.41
8) Cc1c(NC(=O)c2cc(C3CC3)c(CNC3CC(O)C3)cn2)cccc1-c1cccc(NC(=O)c2cc(C3CC3)c(CN[C@H]3C[C@@H](O)C3)cn2)c1C (stereo partly drawn) :: 8.39
9) COc1cc(C(=O)Nc2cccc(-c3cccc(NC(=O)c4cc(OC)c(CNCC[S+](C)[O-])cn4)c3C)c2C)ncc1CNCC[S+](C)[O-] (stereo not drawn) :: 9.37
10) CC(=O)NCCNCc1cnc(C(=O)Nc2cccc(-c3cccc(NC(=O)c4cc(C5CC5)c(CNCCNC(C)=O)cn4)c3C)c2C)cc1C1CC1 :: 8.83

Q: If you can, please state the reported pIC50 value of `COC(=O)CNCc1cnc(C(=O)Nc2cccc(-c3cccc(NC(=O)c4cc(OC)c(CNCC(=O)OC)cn4)c3C)c2C)cc1OC` .
Result: 9.19

----------
Listed compounds paired with reported pIC50
Target: interaction between PD-1 and PD-L1 (Homo sapiens (Human))
Experiment: PD1-PDL1 HTRF binding activity test (Cisbio PD-1/PD-L1 binding assay kit)
Details: read-out: PD1-PDL1 HTRF Binding Activity IC50
pIC50 here: minus log base 10 of the concentration, concentration in moles per litre.

Below, 2 compounds whose answers are already recorded.
1. COc1cc(C(=O)Nc2cccc(-c3cccc(NC(=O)c4cc(OC)c(CN5C[C@H](O)C[C@H]5C(=O)O)cn4)c3C)c2C)ncc1CN1C[C@H](O)C[C@H]1C(=O)O :: 9.60
2. Cc1cc(C(=O)Nc2cccc(-c3cccc(NC(=O)c4cc(C)c(CN5CCCC[C@H]5C(=O)O)cn4)c3C)c2C)ncc1CN1CCCC[C@H]1C(=O)O :: 9.55

Q: If you can, please state the reported pIC50 value of `Cc1cc(C(=O)Nc2cccc(-c3cccc(NC(=O)c4cc(C)c(CNCCO)cn4)c3C)c2C)ncc1CNCCO` .
Result: 9.44

Q: Now the compound `CCOC(=O)[C@H](CO)NCc1cnc(C(=O)Nc2cccc(-c3cccc(NC(=O)c4cc(C5CC5)c(CN[C@@H](CO)C(=O)OCC)cn4)c3C)c2C)cc1C1CC1`
Result: 7.82

Q: Now the compound `COc1cc(C(=O)Nc2cccc(-c3cccc(NC(=O)c4cc(OC)c(CN[C@@H](CO)CC(=O)O)cn4)c3C)c2C)ncc1CN[C@@H](CO)CC(=O)O`
Result: 9.44

Q: Now the compound `Cc1c(NC(=O)c2cc(C3CC3)c(CN3CC[C@H](C(=O)O)C3)cn2)cccc1-c1cccc(NC(=O)c2cc(C3CC3)c(CN3CC[C@H](C(=O)O)C3)cn2)c1C`
Result: 9.09

Each recorded value in this set is attributed to patent US11459339B2.
